Data credit: ChEMBL document CHEMBL4385650

test system: HCT-116; assay: Antiproliferative activity against human HCT116 cells assessed as reduction in cell viability incubated for 72 hrs by MTT assay; format: functional, cell-based; conditions: HCT-116, 72 h
experimentalReadout: IC50 (µM)

Examples from the recorded data:
molecule=COc1ccc(CCC(=O)CC(C)=O)cc1OC experimentalreadout=IC50 readoutvalue=215
molecule=COc1cc(/C=C/C(=O)CC(C)=O)cc(OC)c1OC experimentalreadout=IC50 readoutvalue=28.8
molecule=COc1cc(/C=C/C(=O)CC(C)=O)ccc1O experimentalreadout=IC50 readoutvalue=1.4

P. COc1cc(/C=C/C(=O)CC(=O)/C=C/c2ccc(O)c(OC)c2)ccc1O [CURCUMIN]
Q. CC(=O)CC(=O)/C=C/c1ccc(O)cc1
// query Short answer wanted: higher IC50, P or Q ? Please indicate the selected item by its label.
// result Q

* * *

system: HCT-116; assay: Antiproliferative activity against human HCT116 cells assessed as reduction in cell viability incubated for 72 hrs by MTT assay; assay type: functional, cell-based; details: HCT-116, 72 h
pIC50: −log10 of the molar value.
experimentalReadout: pIC50

smilesrepr=CC(=O)CC(=O)CCc1ccc(O)cc1 readoutvalue=3.67
smilesrepr=COc1cc(/C=C/C(=O)CC(C)=O)cc(OC)c1O readoutvalue=4.61
smilesrepr=COc1cc(OC)c(CCC(=O)CC(C)=O)c(OC)c1 readoutvalue=3.86
smilesrepr=COc1cc(CCC(=O)CC(C)=O)ccc1O readoutvalue=3.74

a. COc1cc(OC)c(/C=C/C(=O)CC(C)=O)c(OC)c1
b. CC(=O)CC(=O)/C=C/c1ccc(O)c(O)c1
// query Short answer wanted: higher pIC50, a or b ? Please indicate the selected item by its label.
// result b
